Hey, just so you know, these numbers are from the Human Domainome abundance scans (Beltran et al. 2025).

B1: E3 ubiquitin-protein ligase NEDD4-like, residues 539 to 589; numbered along this chain, Q96PU5 (parent)
chain: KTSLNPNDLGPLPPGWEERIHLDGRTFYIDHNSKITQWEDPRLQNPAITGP

Variants of: B1
Assay: abundance fitness (aPCA) (normalised: wild type 0, dead -1); higher = more abundant; growth selection in yeast, the domain comes from the species named
Settings: Homo sapiens
Classify by measured abundance fitness: Satisfied if it is equal to or exceeds -0.3, Not satisfied if it is smaller.

Could you verify whether the entry D30P shows abundance fitness of no less than -0.3? Not satisfied

Could you verify whether the entry N32Y shows abundance fitness of no less than -0.3? Satisfied

Could you verify whether the entry E17P shows abundance fitness of no less than -0.3? Not satisfied

Could you verify whether the entry P41Q shows abundance fitness of no less than -0.3? Not satisfied

Could you verify whether the entry D30S shows abundance fitness of no less than -0.3? Not satisfied
